assay: Plasma concentration in streptozotocin-induced ICR mouse type-2 diabetic model at 30 mg/kg, po measured at 8 hrs by HPLC/MS/MS analysis; type: ADME, organism-based; set-up: dose 30 mg/kg, route oral
MEASURE: concentration at 8 h (µM)
Write the answer as a number in µM, unit excluded.

Asked: Field request: concentration at 8 h | item: CC(C)(C)CC[C@H](c1ccc(C(=O)NCc2nn[nH]n2)cc1)N1C(=O)C(c2cc(Cl)cc(Cl)c2)=N[C@]12CC[C@@H](C(C)(C)C)CC2
Given back: 8.5

* * *

experiment: Half life in dog at 1 mg/kg, iv; type: ADME, organism-based, Canis lupus familiaris; set-up: dose 1 mg/kg, route intravenous; details: in vivo
MEASURE: half-life (min)
Give the value, in units of min, as a plain number.

Asked: Fill in the blank: the reported half-life of CC(C)(C)CC[C@H](c1ccc(C(=O)NCc2nn[nH]n2)cc1)N1C(=O)C(c2cc(Cl)cc(Cl)c2)=N[C@]12CC[C@@H](C(C)(C)C)CC2 is ____.
Given back: 366

* * *

biological target: Glucagon-like peptide 1 receptor (Homo sapiens, UniProt P43220); assay: Antagonist activity at human GLP-1R expressed in CHO cells assessed as inhibition of GLP-1-stimulated cAMP production preincubated for 30 mins followed by GLP-1 induction measured after 45 mins by LANCE assay
Sequence (P43220 whole entry): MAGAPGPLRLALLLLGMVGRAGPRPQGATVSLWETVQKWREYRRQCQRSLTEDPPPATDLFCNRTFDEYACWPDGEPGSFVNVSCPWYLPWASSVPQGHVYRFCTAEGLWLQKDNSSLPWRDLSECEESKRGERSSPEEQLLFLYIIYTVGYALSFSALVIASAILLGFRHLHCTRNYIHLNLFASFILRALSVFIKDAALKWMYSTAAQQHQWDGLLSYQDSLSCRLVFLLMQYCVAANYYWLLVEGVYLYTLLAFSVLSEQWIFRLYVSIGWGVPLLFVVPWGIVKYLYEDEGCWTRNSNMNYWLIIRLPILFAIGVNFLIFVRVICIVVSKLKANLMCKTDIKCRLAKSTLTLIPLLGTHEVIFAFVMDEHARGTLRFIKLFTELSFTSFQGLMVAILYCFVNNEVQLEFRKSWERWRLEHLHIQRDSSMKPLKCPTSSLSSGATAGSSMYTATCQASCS
MEASURE: IC50

Some compounds with recorded IC50:
- STRUCTURE: "C[C@H](c1ccc(C(=O)NCCC(=O)O)cc1)N1C(=O)C(c2ccc(OC(F)(F)F)cc2)=N[C@]12CC[C@@H](C(C)(C)C)CC2"
  RESULT VALUE: "> 10 µM"
- STRUCTURE: "CC(C)(C)CC[C@H](c1ccc(C(=O)NCCC(=O)O)cc1)N1C(=O)C(c2cc(Cl)cc(Cl)c2)=N[C@]12CC[C@@H](C(C)(C)C)CC2"
  RESULT VALUE: "2 µM"
- STRUCTURE: "C[C@H](c1ccc(C(=O)NCCC(=O)O)cc1)N1C(=O)C(c2ccc(F)c(Cl)c2)=N[C@]12CC[C@@H](C(C)(C)C)CC2"
  RESULT VALUE: "4.3 µM"

Asked: Please give the measured IC50 for this compound: C[C@H](c1ccc(C(=O)NCCC(=O)O)cc1)N1C(=O)C(c2ccccc2Cl)=N[C@]12CC[C@@H](C(C)(C)C)CC2
Given back: > 10 µM

* * *

target: Glucagon receptor (Homo sapiens, UniProt P47871); assay: Antagonist activity at human GCGR expressed in CHO cells assessed as inhibition of glucagon-stimulated cAMP production preincubated for 30 mins followed by glucagon induction measured after 45 mins by LANCE assay; type: functional, cell-based
Sequence (P47871 whole entry): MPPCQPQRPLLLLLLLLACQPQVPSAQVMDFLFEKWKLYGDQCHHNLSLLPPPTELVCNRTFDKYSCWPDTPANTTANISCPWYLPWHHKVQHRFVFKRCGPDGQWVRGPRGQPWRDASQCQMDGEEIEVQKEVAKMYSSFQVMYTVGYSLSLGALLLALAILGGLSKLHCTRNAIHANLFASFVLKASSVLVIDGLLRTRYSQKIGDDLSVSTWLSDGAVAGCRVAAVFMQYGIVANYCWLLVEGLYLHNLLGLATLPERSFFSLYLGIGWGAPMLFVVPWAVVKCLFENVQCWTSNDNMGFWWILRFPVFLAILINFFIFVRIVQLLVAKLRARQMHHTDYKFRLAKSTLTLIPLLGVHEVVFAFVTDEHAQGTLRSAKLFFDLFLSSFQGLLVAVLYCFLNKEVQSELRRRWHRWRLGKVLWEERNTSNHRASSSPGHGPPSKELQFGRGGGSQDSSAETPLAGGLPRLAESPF
Each record's class is read off its IC50 using these ranges: band A = under 500 nM, band B = from 500 nM up to 800 nM, band C = 800 nM and over

Examples from the recorded data:
- STRUCTURE: "C[C@@H](c1ccc(C(=O)NCCC(=O)O)cc1)N1C(=O)C(c2cc(Cl)cc(Cl)c2)=N[C@]12CC[C@@H](C(C)(C)C)CC2"
  ASSIGNED LABEL: "band C"
- STRUCTURE: "C[C@H](c1ccc(C(=O)NC[C@@H](O)C(=O)O)cc1)N1C(=O)C(c2cc(Cl)cc(Cl)c2)=N[C@]12CC[C@@H](C(C)(C)C)CC2"
  ASSIGNED LABEL: "band C"
- STRUCTURE: "CC(C)(C)CC[C@H](c1ccc(C(=O)NCc2nn[nH]n2)cc1)N1C(=O)C(c2cc(F)cc(Cl)c2)=N[C@]12CC[C@@H](C(C)(C)C)CC2"
  ASSIGNED LABEL: "band A"

Asked: Where would CC(C)(C)[C@H]1CC[C@]2(CC1)N=C(c1ccccc1)C(=O)N2Cc1ccc(C(=O)NCCC(=O)O)cc1 land among the classes by reported IC50?
Given back: band C

Asked: Query C[C@H](c1ccc(C(=O)NCCC(=O)O)cc1)N1C(=O)C(c2cccc(F)c2)=N[C@]12CC[C@@H](C(C)(C)C)CC2 next
Given back: band B

Asked: Ok, now CC(C)(C)[C@H]1CC[C@]2(CC1)N=C(c1ccccc1F)C(=O)N2Cc1ccc(C(=O)NCCC(=O)O)cc1
Given back: band B

This collection of values is drawn from ChEMBL document CHEMBL3232855.
